Tested on: NCI-H226
ASSAY: NCI tumour cell line growth inhibition, 48 h
Activity calls are given as the source filed them. Cut-off read from the data, not from the text of the source: active = GI50 up to about 1.1 µM and inactive = higher.
Assignment: determine reported GI50 for the given compounds.

### Prompt Record request: GI50 value, item `COc1ccc(OC)c(/C=C/c2ccnc3ccccc23)c1`
### Response 0.441 µM (active)

### Prompt Then `CSc1c(C#N)c(N)n2c1C(=O)N(c1ccccc1)C2=S` ?
### Response > 100 µM (inactive)

### Prompt Then COc1cc(O)c2c(c1)C(=O)c1cc3c(c(O)c1C2=O)C(OC1OC(C)C(OC)C(O)C1OC)C(OC)C(C)(O)C3=O (stereo not given) ?
### Response 2.59 µM (inactive)

### Prompt Then O=C1C2CCCC2N1Cc1ccccc1 (stereo not given) ?
### Response > 100 µM (inactive)

### Prompt Then `O=c1[nH]c2nc3ccccc3c(=O)n2/c1=C/c1ccco1` ?
### Response > 100 µM (inactive)

### Prompt Then `CCCCCCC(=O)C/C(CCC(=O)N(Cc1ccccc1)Cc1ccccc1)=N\NC(N)=O` ?
### Response > 100 µM (inactive)

### Prompt Then `COc1ccc2c(c1)CC[C@@H]1[C@@H]2CC[C@]2(C)C(=O)/C(=C/c3ccncc3)C[C@@H]12` ?
### Response 63 µM (inactive)

### Prompt Then `COc1cc(/C=N/N=C2NCCCN2)ccc1O` ?
### Response > 100 µM (inactive)

### Prompt Then COc1ccc(C(OCC2OC(n3ccc(NC(=O)c4ccccc4)nc3=O)CC2OP2(=S)SCCS2)(c2ccccc2)c2ccc(OC)cc2)cc1 (stereo not given) ?
### Response 34.4 µM (inactive)

### Prompt Then C/C(=C\CC/C=C(\C)CC/C=C(\C)CCC1SC1(C)C)CC/C=C(\C)CCC1OC1(C)C (stereo not given) ?
### Response > 100 µM (inactive)

----------
Test system: KM12
ASSAY: NCI tumour cell line growth inhibition, 48 h
The source made the active and inactive calls. No stated cut-off is given here; in the data, active = GI50 up to about 1.1 µM and inactive = higher.
Respond with a class label; see Yes = active, No = inactive

### Prompt // outcome(item) with item = `C=CC(C)(C)c1cc([C@@H]2COc3cc(O)ccc3C2=O)c(O)c(OC)c1OC`
### Response No

### Prompt Then O=C(c1ccc(Cl)cc1)N1N=C(c2ccc(Cl)cc2)CC1(O)c1cc(F)c(Cl)cc1Cl (stereo not given) ?
### Response No

### Prompt Then CCCC(=O)OCC(O)CO (stereo not given) ?
### Response No

### Prompt Then O=C(CNC(c1ccccc1)(c1ccccc1)c1ccccc1)NC1CCCCC1NC(=O)CNC(c1ccccc1)(c1ccccc1)c1ccccc1 (stereo not given) ?
### Response No

### Prompt Then `CC(C)(C)OC(=O)N(O)[C@@H]1C=C[C@H](n2cnc3c(N)ncnc32)C1` ?
### Response No

### Prompt Then `O=C1N[C@@H]([C@H](CCCCCO)OC(=O)c2ccccc2)CO1` ?
### Response No

### Prompt Then COc1cc(/N=N/N(C)C)c(C(C)c2c3cc(OC)c(OC)cc3cc[n+]2C)cc1OC (stereo not given) ?
### Response No

### Prompt Then `Cc1nccc2c1cnc1ccnn12` ?
### Response No

### Prompt Then `CCCCCCCCCCCC(=O)OCCOCCOCCOCCOCCOCc1ccc(OC)cc1` ?
### Response No

### Prompt Then CC1(C)C(=O)/C=C\C(=O)C(C)(C)C2=CC=C(O2)C(C)(C)C(=O)C(Br)C(Br)C(=O)C(C)(C)C2=CC=C1O2 (stereo not given) ?
### Response No

### Prompt Then CC(=O)O[C@H]1CCC2[C@@H]3CCC4C(=O)c5oncc5C[C@]4(C)C3CC[C@@]21C (stereo not given in full) ?
### Response No

### Prompt Then `COc1cc(/C=N/N=C2NCCCN2)ccc1O` ?
### Response No

### Prompt Then CCSc1nc(-c2ccc(OC)cc2)c(C#N)c(=O)n1C1OCC(OC(C)=O)C(OC(C)=O)C1OC(C)=O (stereo not given) ?
### Response No

### Prompt Then `COc1cc(Nc2nnc3n2S(=O)(=O)c2cc(C)c(Cl)cc2S3)cc(OC)c1` ?
### Response No

### Prompt Then Nc1ccc(C(=O)NN2C(=O)C(Cl)C2c2ccccc2)cc1 (stereo not given) ?
### Response No

### Prompt Then `COc1ccc(/C=C/c2ccnc3ccccc23)cc1OC` ?
### Response No

### Prompt Then `COc1c(Br)cc(Br)c(OC)c1-c1ccc[nH]1` ?
### Response No

### Prompt Then COc1ccc2c(c1)CC[C@@H]1C2CC[C@]2(C)C(=O)N(CCN3CCCC3)C(=O)CC12 (stereo not given in full) ?
### Response No

### Prompt Then C[N+](C)(C)C(Cc1c[nH]c(=S)[nH]1)C(=O)O (stereo not given) ?
### Response No

### Prompt Then `CSc1[nH]nc(N)c1C(=O)Nc1ccc(Cl)cc1` ?
### Response No

### Prompt Then `CC(=O)Nc1ccc2c(c1)/C(=N/c1ccc(C(=O)O)cc1)c1ccccc1-2` ?
### Response No

### Prompt Then `CC(=O)Nn1cnc(C(=N)C#N)c1N` ?
### Response No

### Prompt Then `CC[C@H](C)C1=C(OC(C)=O)[N@+]2([O-])Oc3ccc(-c4c(OC(C)=O)c(OC(C)=O)c(-c5ccc(OC(C)=O)cc5)c(OC(C)=O)c4OC(C)=O)cc3O[C@]2([C@@H](C)CC)C(=O)N1OC(C)=O` ?
### Response No

### Prompt Then `CCOc1ccccc1NC(=O)C(=O)CC(=O)c1sc(Nc2nnc(-c3ccc(Cl)c(Cl)c3)o2)nc1C` ?
### Response No

### Prompt Then Nc1ncnc2c1ncn2CCOC(c1ccccc1)P(=O)(O)O (stereo not given) ?
### Response No

### Prompt Then `O=C(c1ccccc1)[C@@H]1C[C@H](Sc2ccccc2)c2cc(Cl)ccc2N1` ?
### Response No

### Prompt Then CC(=O)OCC1OC(n2c(-c3ccc(N)cc3)cc(-c3ccco3)c(C#N)c2=O)C(OC(C)=O)C(OC(C)=O)C1OC(C)=O (stereo not given) ?
### Response No

### Prompt Then `Cc1cc(C)nc(NS(=O)(=O)c2ccc(NC(=O)c3cccc4c(Nc5ccc(S(=O)(=O)N=C(N)N)cc5)c5ccccc5nc34)cc2)n1` ?
### Response No

### Prompt Then Cc1ccc(-n2c(Cn3nnc(-c4cccnc4)n3)nn(C3OC(COC(=O)c4ccccc4)C(OC(=O)c4ccccc4)C3OC(=O)c3ccccc3)c2=S)cc1 (stereo not given) ?
### Response No

### Prompt Then `COc1ccc2c(c1)CC[C@@H]1[C@@H]2CC[C@]2(C)C(=O)/C(=C/c3ccncc3)C[C@@H]12` ?
### Response No

### Prompt Then CCOc1cc2c(cc1O)C(O)C[C@@H]1[C@@H]2CC[C@]2(C)[C@@H](O)CC[C@@H]12 (stereo not given in full) ?
### Response No

### Prompt Then `Cc1cc2nc3c(C)c4ccccc4c(C)n3c2cc1C` ?
### Response No

### Prompt Then Nc1cccc(OCC2CCCN3CCCCC23)c1 (stereo not given) ?
### Response No

### Prompt Then COC(=O)C1C/C(=C/N(C)C)C(=S)N1 (stereo not given) ?
### Response No

### Prompt Then COC1(OC)CC2C(=O)N(Cc3ccccc3)C1C=C2S(=O)(=O)c1ccccc1 (stereo not given) ?
### Response No

### Prompt Then `O=Cc1cc2c(s1)C(=O)c1sccc1C2=O` ?
### Response No

### Prompt Then `CCOc1ccc2[nH]c3c(C)c4ccncc4c(C)c3c2c1` ?
### Response Yes

### Prompt Then `N#C/C(=C\c1ccccc1F)C(=O)c1ccccc1` ?
### Response No

### Prompt Then `CCOC(=O)C(=O)/C(=C/n1c(=S)[nH]c2ccc([N+](=O)[O-])cc21)C(=O)OCC` ?
### Response No

### Prompt Then N#CC1=C(N)Nc2nc3ccccc3n2C1c1ccccc1 (stereo not given) ?
### Response No
